Values were extracted from patent US9375000B2.

- System: Musca domestica
- experiment-summary: Test against Musca domestica
- Format: in vivo
- condition-set: application rate 100 ppm; after 2 days
quantity-measured: activity (mortality)

> print(dat)
                                   molecule     quantity.measured  test.result
1  O=C(NCc1ccc(N2CCC(c3cc(Br)cc(Br)c3)(C(F)(F)F)C2O)cc1C(F)(F)F)C1CC1 (stereo not drawn) [A1-253]  activity (mortality)          90%
2  CCC(=O)NCc1ccc(N2CCC(c3cc(Cl)c(Cl)c(Cl)c3)(C(F)(F)F)C2O)nc1Br (stereo not drawn) [A3-112]  activity (mortality)          90%
3  O=C(NCc1ccc(N2CCC(c3cc(Cl)c(Cl)c(Cl)c3)(C(F)(F)F)C2O)cc1I)C1CC1 (mixture of isomers) [A1-176]  activity (mortality)          80%
4  O=C(NCc1ccc(N2CC(c3cc(C(F)(F)F)cc(C(F)(F)F)c3)(C(F)(F)F)CC2=O)nc1C(F)(F)F)C1CC1 (stereo not drawn) [C3-27]  activity (mortality)          90%
5  O=C(NCc1ccc(N2CCC(c3cc(F)cc(Cl)c3)(C(F)(F)F)C2O)nc1C(F)(F)F)C1CC1 (mixture of isomers) [A3-170]  activity (mortality)          90%
6  O=C(NCc1ccc(N2CCC(c3cc(Cl)c(Cl)c(Cl)c3)(C(F)(F)F)C2O)cc1Cl)C1CC1 (stereo not drawn) [A1-16]  activity (mortality)          80%

###

- Test system: adult engorged female Boophilus microplus ticks
- experiment-summary: Test against Boophilus microplus (dip)
- Assay type: in vivo
- condition-set: application rate 100 ppm; dip; after 7 days
Listed next: entries and their corresponding activity (mortality).
quantity-measured: activity (mortality)

> print(dat)
                                   compound     quantity.measured  test.result
1  O=C(NCc1cc(F)c(N2CCC(c3cc(C(F)(F)F)cc(C(F)(F)F)c3)(C(F)(F)F)C2O)nc1Cl)C1CC1 (centres unmarked) [A3-381]  activity (mortality)          80%
2  CC(=O)NCc1ccc(N2CCC(c3cc(Cl)c(F)c(Cl)c3F)(C(F)(F)F)C2O)cc1C(F)(F)F (centres unmarked) [A1-282]  activity (mortality)          95%
3  CS(=O)(=O)CC(=O)NCc1ccc(N2CCC(c3cc(C(F)(F)F)cc(C(F)(F)F)c3)(C(F)(F)F)C2O)nc1Br (mixture of isomers) [A3-165]  activity (mortality)          90%
4  O=C(NCc1ccc(N2CCC(c3cc(Cl)cc(Cl)c3)(C(F)(F)F)C2O)cc1Br)C1CC1 (mixture of isomers) [A1-110]  activity (mortality)          90%
5  CCC(=O)NCc1ccc(N2CCC(c3cc(C(F)(F)F)cc(C(F)(F)F)c3)(C(F)(F)F)C2O)cc1C(F)(F)F (mixture of isomers) [A1-57]  activity (mortality)          90%

###

Listed next: entries and their corresponding insecticidal activity (mortality).
- System: green peach aphids (Myzus persicae)
- experiment-summary: Myzus persicae spray test (MYZUPE)
- Assay type: in vivo
- condition-set: active compound concentration 100 ppm; after 6 days
- Procedure: Unless not mentioned otherwise, the test solutions were prepared as follows: Solvent: 3 parts by weight Dimethylformamide Emulsifier: 1 part by weight Polyoxyethylene alkyl phenyl ether […] 1 day before treatment, green peach aphids (Myzus persicae) are inoculated onto the testing plants, about 50 heads per leaf, 100 for 1 pot. […] After 6 days mortality in % is determined. […]
quantity-measured: insecticidal activity (mortality) (%)

> print(dat)
                                   compound                  quantity.measured  measurement.unit  test.result
1  CCC(=O)NCc1cnc(N2CCC(c3cc(Cl)c(Cl)c(Cl)c3)(C(F)(F)F)C2O)nc1C(F)(F)F (stereo not shown)  insecticidal activity (mortality)                 %           90
2  O=C(NCc1ccc(N2CCC(c3cc(Cl)c(Cl)c(Cl)c3)(C(F)(F)F)C2O)cc1Cl)C1CC1 (stereo not shown)  insecticidal activity (mortality)                 %          100
3  O=C(CC(F)(F)F)NCc1ccc(N2CCC(c3cc(Cl)c(Cl)c(Cl)c3)(C(F)(F)F)C2O)cc1Cl (stereo not shown)  insecticidal activity (mortality)                 %          100
4  O=C(NCc1cc(F)c(N2CCC(c3cc(C(F)(F)F)cc(C(F)(F)F)c3)(C(F)(F)F)C2O)nc1Cl)C1CC1 (stereo not shown)  insecticidal activity (mortality)                 %           98
